System: M. tuberculosis H37Rv growth inhibition, glycerol-free medium
Test: Mycobacterium tuberculosis H37Rv growth inhibition, glycerol free medium, confirmatory screen (AID 504645);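 further: bacteria grown one week before the viability dye was added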
Where a SMILES comes first, the peptide text is derived from it. The star is where a group is joined. Cbz = O=C(OCc1ccccc1)*
Recorded IC50 values for a group of compounds are listed next.

| COMPOUND | IC50 |
| --- | --- |
| Cc1nn2c(NCc3ccccn3)cc(C(C)C)nc2c1-c1ccccc1 | 1970 nM |
| CCOC(=O)CNC(=O)[C@H](Cc1ccccc1)NC(=O)OCc1ccccc1 (Cbz-Phe-Gly-OEt) | 2150 nM |
| O=C(c1ccc(CNc2c(N3CCCC3)c(=O)c2=O)cc1)N1CC=C(c2ccccc2)CC1 | 2520 nM |
| CC1CCCN(C(=O)C2CCC(CNc3c(N4CCCCC4)c(=O)c3=O)CC2)C1 (stereo not drawn) | 19000 nM |

Task: Please report the measured IC50 for CCc1c(C)nc(SCC(=O)Nc2ccc3c(c2)OCCO3)[nH]c1=O
Output: 19400 nM

Task: # return recorded IC50 for entry O=C(NCCc1ccc(Cl)cc1)c1ccc(CNc2c(N3CCOCC3)c(=O)c2=O)cc1
Output: 5060 nM

* * *

Test system: M. tuberculosis H37Rv growth inhibition, glycerol-free medium
Test: Mycobacterium tuberculosis H37Rv growth inhibition, glycerol free medium, confirmatory screen (AID 504645);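 further: bacteria grown one week before the viability dye was added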
// values below are reported pIC50
Would you please state pIC50, meaning minus log10 of the concentration in mol/L, as a bare number?

Sample records with pIC50:
| COMPOUND | pIC50 |
| --- | --- |
| O=C(/C=C\c1cccs1)N1CCN(Cc2ccc3c(c2)OCO3)CC1 | 6.44 |
| CC1CCN(C(=O)c2ccc(CNc3c(N4CCCC4)c(=O)c3=O)cc2)CC1 | 5.23 |
| CCOC(=O)CSc1ncnc2c1cnn2-c1ccc(Cl)cc1 | 5.30 |

Task: Consider the compound Cc1ccc(C(=O)N/N=C(/CC(=O)c2cccs2)C(F)(F)F)cc1 . State its measured pIC50.
Output: 5.68

Task: Quick one: give measured pIC50 for CCc1ccc(/C=C2/C(=O)N(C)C(=S)N2CC(=O)OC)s1
Output: 5.72

* * *

Reported log10 of IC90 values for the following compounds.
System: M. tuberculosis H37Rv growth inhibition, glycerol-free medium
Assay: Mycobacterium tuberculosis H37Rv growth inhibition, glycerol free medium, confirmatory screen (AID 504645);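 further: bacteria grown one week before the viability dye was added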
Conditions: measured here: 90% growth inhibition
Parameter value (number): base-10 log of IC90 in nM.

Some entries whose results are on file:
| SMILES NOTATION | log10 of IC90 |
| --- | --- |
| COc1cc(NC(=O)C/C(C)=N/NC(=O)c2ccccn2)c(OC)cc1Cl | 3.90 |
| CCOC(=O)COn1c2c(c3c4no[n+]([O-])c4ccc31)CCCC2 | 3.46 |
| O=C(NCCc1ccc(Cl)cc1)c1ccc(CNc2c(N3CCOCC3)c(=O)c2=O)cc1 | 3.84 |

Task: Supply measured log10 of IC90 of c1ccc(/N=C2\N=C(Nc3ccccn3)c3ccccc32)nc1 in your reply.
Output: 2.46

Task: Output measured log10 of IC90 for this item: Cc1cccc(/C=C/C(=O)c2ccc([N+](=O)[O-])o2)c1
Output: 2.81

* * *

Test system: M. tuberculosis H37Rv growth inhibition, glycerol-free medium
Assay: Mycobacterium tuberculosis H37Rv growth inhibition, glycerol free medium, confirmatory screen (AID 504645);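 further: bacteria grown one week before the viability dye was added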
Conditions: measured here: 90% growth inhibition
Below: a set of entries, each annotated with reported IC90.
Write the number in µM without appending the unit.

Task: Note down IC90 recorded for Cc1ccc(NC(=O)COC(=O)CCc2c[nH]c3ccccc23)cc1[N+](=O)[O-]
Output: 4.35

* * *

Reported pIC50 by item:
Tested on: M. tuberculosis H37Rv growth inhibition, glycerol-free medium
Experiment: Mycobacterium tuberculosis H37Rv growth inhibition, glycerol free medium, confirmatory screen (AID 504645);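 further: bacteria grown one week before the viability dye was added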
Formally, pIC50 is defined as -log10 of the concentration c, with c in mol/L.

| SMILES NOTATION | OBSERVATION TYPE | REPORTED RESULT |
| --- | --- | --- |
| O=C(c1ccc(CNc2c(N3CCOCC3)c(=O)c2=O)cc1)N1CC=C(c2ccccc2)CC1 | pIC50 | 5.95 |

Task: Write down the reported pIC50 (system: M. tuberculosis H37Rv growth inhibition, glycerol-free medium) of CCOC(=O)COc1ccc(/C=C2\NC(=S)N(CC)C2=O)cc1
Output: 5.58

Task: Enter pIC50 (test system M. tuberculosis H37Rv growth inhibition, glycerol-free medium) for CCOC(=O)c1ccc(NC(=O)Cn2ncc(Cl)c(Cl)c2=O)cc1
Output: 6.36

Task: Look up M. tuberculosis H37Rv growth inhibition, glycerol-free medium data: pIC50 of O=C(CSc1nc2c(c(=O)[nH]1)CCC2)Nc1ccc(F)cc1 , then report it.
Output: 4.77

Task: Give pIC50; test system M. tuberculosis H37Rv growth inhibition, glycerol-free medium; molecule COc1cc(NC(=O)C/C(C)=N/NC(=O)c2ccccn2)c(OC)cc1Cl
Output: 5.56

Task: Report measured pIC50 on M. tuberculosis H37Rv growth inhibition, glycerol-free medium; entry: CC[N+](C)(CC)CCCCOc1ccc2c(c1)C(=O)c1cc(OCCCC[N+](C)(CC)CC)ccc1-2
Output: 5.88

Task: Find the measured pIC50 of Nc1c(C(=O)NC2CCCCC2)nsc1C(=O)OCC(=O)NC1CCCCC1 with M. tuberculosis H37Rv growth inhibition, glycerol-free medium as test system.
Output: 5.91

* * *

IC90: recorded values
System: M. tuberculosis H37Rv growth inhibition, glycerol-free medium
Assay: Mycobacterium tuberculosis H37Rv growth inhibition, glycerol free medium, confirmatory screen (AID 504645);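 further: bacteria grown one week before the viability dye was added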
Details: measured here: 90% growth inhibition

Worked examples, 8 compounds total:
| SMILES NOTATION | OBSERVATION TYPE | REPORTED RESULT |
| --- | --- | --- |
| Cc1cc(Br)ccc1NC(=O)c1cnc(N2CCN(c3ccccn3)CC2)c2ccccc12 | IC90 | 2000 nM |
| Cc1nn2c(NCc3ccccn3)cc(C(C)C)nc2c1-c1ccccc1 | IC90 | 2540 nM |
| CC1CCN(C(=O)C2CCN(c3nnc(-n4cccc4)s3)CC2)CC1 | IC90 | 3340 nM |
| CC[N+](C)(CC)CCCCOc1ccc2c(c1)C(=O)c1cc(OCCCC[N+](C)(CC)CC)ccc1-2 | IC90 | 2130 nM |
| CCOC(=O)COc1ccc(/C=C2\NC(=S)N(CC)C2=O)cc1 | IC90 | 4740 nM |
| O=C(CSc1nc2c(c(=O)[nH]1)CCC2)Nc1ccc(F)cc1 | IC90 | > 25000 nM |
| CCc1c(C)nc(SCC(=O)Nc2ccc3c(c2)OCCO3)[nH]c1=O | IC90 | > 25000 nM |
| O=C(CSc1nc2ccccc2c(=O)[nH]1)NC1CCCCC1 | IC90 | 130 nM |

// below: IC90 requested for another compound
Task: Assign IC90 to the following record: O=C(/C=C/c1ccccc1)N1CCN(CCN2C(=O)c3cccc4cccc(c34)C2=O)CC1
Output: 5380 nM

* * *

Test system: M. tuberculosis H37Rv growth inhibition, glycerol-free medium
Assay: Mycobacterium tuberculosis H37Rv growth inhibition, glycerol free medium, confirmatory screen (AID 504645);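 further: bacteria grown one week before the viability dye was added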
OBSERVATION TYPE: IC50

Task: Identify measured IC50 corresponding to CC1CCN(C(=O)C2CCN(c3nnc(-n4cccc4)s3)CC2)CC1
Output: 1640 nM

Task: Complete the entry with IC50 for COC(=O)C(C)Oc1ccc(Cc2ncc(C(F)(F)F)cc2Cl)cc1 (configuration not stated)
Output: 2620 nM

Task: Read the entry CNc1nc(SCc2ccccc2Cl)nc2c1CCCC2 and write its reported IC50.
Output: 1080 nM

Task: Using known records, supply IC50 for CC(=NCc1ccc2c(c1)OCO2)C1=C(O)c2ccccc2C1=O
Output: 330 nM

Task: # return recorded IC50 for entry Cc1cc(C)n2nc(N)c(N=Nc3ccccc3)c2n1
Output: 2490 nM

Task: Report IC50 for CC(C)OC(=O)CSc1ncnc2c1cnn2-c1ccccc1
Output: 17900 nM

Task: Report IC50, nothing else, for this compound: CCc1c(C)nc(SCC(=O)NC2CCCC2)[nH]c1=O
Output: 2250 nM

* * *

Test system: M. tuberculosis H37Rv growth inhibition, glycerol-free medium
Assay: Mycobacterium tuberculosis H37Rv growth inhibition, glycerol free medium, confirmatory screen (AID 504645);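 further: bacteria grown one week before the viability dye was added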
compounds and their reported IC50

Task: Fill in: IC50 on M. tuberculosis H37Rv growth inhibition, glycerol-free medium, entry CCOC(=O)CSc1ncnc2c1cnn2-c1ccc(C)cc1
Output: 10100 nM

Task: # return IC50 for CC1CC(C)CN(C(=O)c2ccc(CNc3c(N4CCCC4)c(=O)c3=O)cc2)C1 (stereo not drawn) , test system: M. tuberculosis H37Rv growth inhibition, glycerol-free medium
Output: 6340 nM

Task: Name the recorded IC50 of O=C1C(Br)=Cc2cccc3cccc1c23 , assay system M. tuberculosis H37Rv growth inhibition, glycerol-free medium.
Output: 350 nM

Task: Please indicate recorded IC50 of CCOc1ccc(-c2cc(C)[n+](CCc3ccc(OC)c(OC)c3)c(-c3ccc(OCC)cc3)c2)cc1 measured with M. tuberculosis H37Rv growth inhibition, glycerol-free medium.
Output: 660 nM

Task: For M. tuberculosis H37Rv growth inhibition, glycerol-free medium, give the measured IC50 of the entry O=C(c1ccc(CNc2c(N3CCCC3)c(=O)c2=O)cc1)N1CCc2ccccc2C1
Output: 4370 nM

Task: Provide IC50, system M. tuberculosis H37Rv growth inhibition, glycerol-free medium, entry CCOC1OC(=O)C(Cl)=C1Nc1ccccc1C (stereo not drawn)
Output: 2260 nM

Task: Send back M. tuberculosis H37Rv growth inhibition, glycerol-free medium IC50 of Cc1nc(SCC(=O)NC2CCCC2)[nH]c(=O)c1C only.
Output: 9960 nM

Task: Provide measured IC50 on M. tuberculosis H37Rv growth inhibition, glycerol-free medium for Cc1cccc(/C=C/C(=O)c2ccc([N+](=O)[O-])o2)c1 please.
Output: 450 nM
